Assay: Plasma pharmacokinetic analysis in rats, i.v. bolus
Assay type: in vivo
Conditions: male, Sprague-Dawley, rat, in vivo, iv, 10 mg/kg
quantity: concentration at 24 h (ng/mL)
Provide only the numeric value, understood in ng/mL.

Returns the measured concentration at 24 h for the input compound. Input: Cc1csc(CN(C)C(=O)c2cccc(C(=O)N[C@@H](Cc3ccccc3)[C@H](O)CNCc3cncc(C(C)(C)F)c3)c2)n1 [test inhibitor]
2.2

====

Test: Brain pharmacokinetic analysis / brain penetration in rats, i.v. bolus
Format: in vivo
Settings: male, Sprague-Dawley, rat, in vivo, iv, 10 mg/kg
quantity: concentration at 24 h (µg/mL)
Provide only the numeric value, understood in µg/mL.

Returns the measured concentration at 24 h for the input compound. Input: Cc1csc(CN(C)C(=O)c2cccc(C(=O)N[C@@H](Cc3ccccc3)[C@H](O)CNCc3cncc(C(C)(C)F)c3)c2)n1
0.0525

====

Ki overview
Target: memapsin 2 (Homo sapiens)
Assay: Inhibition of memapsin 2 beta-secretase activity (fluorogenic substrate FS-2)
Assay type: biochemical
Conditions: memapsin 2, pH 4, 37° C., fluorogenic substrate FS-2; read-out: M2Ki

Cc1csc(CN(C)C(=O)c2cccc(C(=O)N[C@@H](Cc3ccccc3)[C@H](O)CNCc3cc(Cl)ccc3F)c2)n1 [Compound 261] = < 300 nM
COc1ccc(C(F)(F)F)cc1CNC[C@@H](O)[C@H](Cc1ccccc1)NC(=O)c1cccc(C(=O)N(C)Cc2nc(C)cs2)c1 [Compound 282] = > 501 nM
COC(OC)C(C)c1cncc(CNC[C@@H](O)[C@H](Cc2ccccc2)NC(=O)c2cccc(C(=O)N(C)Cc3nc(C)cs3)c2)c1 (stereo partly drawn) [Compound 284] = < 300 nM
Cc1csc(CN(C)C(=O)c2cc(C(=O)N[C@@H](Cc3ccccc3)[C@H](O)CNCc3cncc(C(C)C)c3)cc(N3CCCCC3)c2)n1 [Compound 231] = < 300 nM
CCn1cc(CNC[C@@H](O)[C@H](Cc2ccccc2)NC(=O)c2cccc(C(=O)N(C)Cc3nc(C)cs3)c2)cn1 [Compound 320] = < 300 nM

Consider the record given below.
Returns the measured Ki for the input compound. Input: Cc1csc(CN(C)C(=O)c2cc(C(=O)N[C@@H](Cc3ccccc3)[C@H](O)CNCc3cncc(C(C)(C)F)c3)cc(C(F)F)c2)n1 [Compound 293]
< 300 nM

====

Ki overview
Molecular target: memapsin 2 (Homo sapiens, UniProt P56817)
Sequence (P56817 46-501): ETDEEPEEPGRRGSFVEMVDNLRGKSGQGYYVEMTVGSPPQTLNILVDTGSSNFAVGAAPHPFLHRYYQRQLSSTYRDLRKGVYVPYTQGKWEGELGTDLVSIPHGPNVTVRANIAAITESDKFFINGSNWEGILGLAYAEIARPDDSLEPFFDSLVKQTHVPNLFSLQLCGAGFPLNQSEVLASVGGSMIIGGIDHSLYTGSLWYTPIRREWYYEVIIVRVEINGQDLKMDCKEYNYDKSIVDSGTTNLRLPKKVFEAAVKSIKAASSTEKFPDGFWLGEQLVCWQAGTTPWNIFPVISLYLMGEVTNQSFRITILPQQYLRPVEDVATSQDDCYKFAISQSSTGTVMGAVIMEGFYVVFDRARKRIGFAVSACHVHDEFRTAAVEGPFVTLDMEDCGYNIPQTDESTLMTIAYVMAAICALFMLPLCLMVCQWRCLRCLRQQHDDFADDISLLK
Experiment: Inhibition of memapsin 2 beta-secretase activity (fluorogenic substrate FS-2)
Assay type: biochemical
Settings: memapsin 2, pH 4, 37° C., 20 minutes pre-incubation; read-out: M2Ki

Consider the worked cases shown below.
Cc1csc(CN(C)C(=O)c2cccc(C(=O)N[C@@H](Cc3ccccc3)[C@H](O)CNCc3cc(CNS(C)(=O)=O)cc(C(C)C)c3)c2)n1 [Compound 175] = > 0.501 µM
Cc1csc(CN(C)C(=O)c2cccc(C(=O)N[C@@H](Cc3ccccc3)[C@H](O)CNCc3cncc(Br)c3)c2)n1 [Compound 158] = < 0.3 µM
Cc1csc(CN(C)C(=O)c2cccc(C(=O)N[C@@H](Cc3ccccc3)[C@H](O)CNCc3cccc(C(C)C)n3)c2)n1 [Compound 10] = < 0.3 µM
COc1cccc(CNC[C@@H](O)[C@H](Cc2ccccc2)NC(=O)c2cccc(C(=O)N(C)Cc3ccc(C)o3)c2)c1 [Compound 18] = 0.301 to 0.5 µM

Consider the record given below.
Returns the measured Ki for the input compound. Input: Cc1csc(CN(C)C(=O)c2cc(C(=O)N[C@@H](Cc3ccccc3)[C@H](O)CNCc3cc(OS(C)(=O)=O)cc(C(C)C)c3)cc(N(C)C)c2)n1 [Compound 178]
< 0.3 µM

====

Biological target: memapsin 2 (Homo sapiens, UniProt P56817)
Assay: Inhibition of memapsin 2 beta-secretase activity (fluorogenic substrate FS-2)
Format: biochemical
Conditions: memapsin 2, pH 4, 37° C., 20 minutes pre-incubation; read-out: M2Ki
quantity: Ki

Cc1csc(CN(C)C(=O)c2cccc(C(=O)N[C@@H](Cc3ccccc3)[C@H](O)CNCc3cc(C(C)C)cc(N(C)C)c3)c2)n1 [Compound 90] = < 300 nM
COc1cccc(CNC[C@@H](O)[C@H](Cc2ccccc2)NC(=O)c2cc(N)cc(C(=O)N(C)Cc3nc(C)cs3)c2)c1 [Compound 34] = > 501 nM

Consider the record given below.
Returns the measured Ki for the input molecule. Input: COc1cccc(CN(C)C[C@@H](O)[C@H](Cc2ccccc2)NC(=O)c2cccc(C(=O)N(C)Cc3nc(C)cs3)c2)c1 [Compound 1]
< 300 nM

====

Target: memapsin 2 (Homo sapiens, UniProt P56817)
Test: Inhibition of memapsin 2 beta-secretase activity (fluorogenic substrate FS-2)
Format: biochemical
Details: memapsin 2, pH 4, 37° C., 20 minutes pre-incubation; read-out: M2Ki
pKi: −log10 of the molar value.
pKi overview

Consider the worked cases shown below.
COc1cc(C(=O)N[C@@H](Cc2ccccc2)[C@H](O)CNCc2ccnc(C(C)C)c2)cc(C(=O)N(C)Cc2nc(C)cs2)c1 [Compound 53] = > 6.52
Cc1csc(CN(C)C(=O)c2cccc(C(=O)N[C@@H](Cc3ccccc3)[C@H](O)CNCc3cccc(N)c3)c2)n1 [Compound 191] = < 6.30
COc1cccc(CNC[C@@H](O)[C@H](Cc2ccccc2)NC(=O)c2cc(C(=O)N(C)Cc3nc(C)cs3)cc(-c3ccccc3C#N)c2)c1 [Compound 140] = > 6.52
Cc1csc(CN(C)C(=O)c2cccc(C(=O)N[C@H](Cc3ccccc3)[C@@H](O)CNCc3cncc(C(C)C)c3)c2)n1 [Compound 128] = < 6.30
COc1cccc(CNC[C@@H](O)[C@H](Cc2ccccc2)NC(=O)c2cc(C(=O)NCc3nccc(C)n3)cc(N(C)S(C)(=O)=O)c2)c1 [Compound 105] = < 6.30
Cc1csc(CN(C)C(=O)c2cc(C(=O)N[C@@H](Cc3ccccc3)[C@H](O)CNCc3cncc(C(C)C)c3)cc(N(C)C)c2)n1 [Compound 162] = > 6.52

Returns the measured pKi for the input compound. Input: Cc1csc(CN(C)C(=O)c2cccc(C(=O)N[C@@H](Cc3ccccc3)[C@H](O)CNCc3cnn(C(C)(C)C)c3C)c2)n1 [Compound 118]
< 6.30

Returns the measured pKi for the input compound. Input: COC(=O)Nc1cc(CNC[C@@H](O)[C@H](Cc2ccccc2)NC(=O)c2cccc(C(=O)N(C)Cc3nc(C)cs3)c2)cc(C(C)C)c1 [Compound 202]
> 6.52

Returns the measured pKi for the input compound. Input: COc1cccc(CNC[C@@H](O)[C@H](Cc2ccccc2)NC(=O)c2cccc(C(=O)N(C)Cc3nc(C)c(C)s3)c2)c1 [Compound 24]
< 6.30

Returns the measured pKi for the input compound. Input: COc1cccc(CNC[C@@H](O)[C@H](Cc2ccccc2)NC(=O)c2cc(C(=O)N(C)Cc3nc(C)cs3)cc(-c3ccncc3)c2)c1 [Compound 203]
> 6.52

Returns the measured pKi for the input compound. Input: COc1cccc(CNC[C@@H](O)[C@H](Cc2ccccc2)NC(=O)c2cccc(C(=O)N(C)Cc3ccn(C)n3)c2)c1 [Compound 61]
> 6.52

Returns the measured pKi for the input compound. Input: Cc1csc(CN(C(=O)c2cccc(C(=O)N[C@@H](Cc3ccccc3)[C@H](O)CNCc3cccc(C(F)(F)F)c3)c2)C2CC2)n1 [Compound 29]
> 6.52

Returns the measured pKi for the input compound. Input: COc1cc(C(=O)NCc2nc(C)cs2)cc(C(=O)N[C@@H](Cc2ccccc2)[C@H](O)CNCc2ccnc(C(C)C)c2)c1 [Compound 83]
> 6.52

Returns the measured pKi for the input compound. Input: COc1cccc(CNC[C@@H](O)[C@H](Cc2ccccc2)NC(=O)c2cc(C(=O)N(C)Cc3nc(C)cs3)cc(N3CCCC3)c2)c1 [Compound 179]
> 6.52

Returns the measured pKi for the input compound. Input: COc1cccc(CNC[C@@H](O)[C@H](Cc2ccccc2)NC(=O)c2cc(C(=O)NCCO)cc(C(=O)N(C)Cc3nc(C)cs3)c2)c1 [Compound 44]
> 6.52

Returns the measured pKi for the input compound. Input: C[C@@H](NC(=O)c1cc(C(=O)N[C@@H](Cc2ccccc2)[C@H](O)CNCc2cc(C(C)(C)C)ccc2O[Si](C)(C)C(C)(C)C)cc(N(C)S(C)(=O)=O)c1)c1ccccc1 [Compound 109]
> 6.52

Returns the measured pKi for the input compound. Input: Cc1csc(CN(C)C(=O)c2cccc(C(=O)N[C@@H](Cc3ccccc3)[C@H](O)CNCc3cccc(C(C)O)c3)c2)n1 (stereo partly shown) [Compound 160]
> 6.52

Returns the measured pKi for the input compound. Input: Cc1csc(CN(C)C(=O)c2cccc(C(=O)N[C@@H](Cc3ccccc3)[C@H](O)CNCc3cncc(CCC(C)C)c3)c2)n1 [Compound 68]
> 6.52

Returns the measured pKi for the input compound. Input: Cc1csc(CN(C(=O)c2cccc(C(=O)N[C@@H](Cc3ccccc3)[C@H](O)CNCc3cncc(C(F)(F)F)c3)c2)C2CC2)n1 [Compound 59]
> 6.52

Returns the measured pKi for the input compound. Input: COc1cccc(CNC[C@@H](O)[C@H](Cc2ccccc2)NC(=O)c2cc(OC)cc(C(=O)N(C)Cc3nc(C)cs3)c2)c1 [Compound 3]
> 6.52

Returns the measured pKi for the input compound. Input: COc1cccc(CNC[C@@H](O)[C@H](Cc2ccccc2)NC(=O)c2cc(C(=O)N(C)Cc3nc(C)cs3)cc(N3CCCC3=O)c2)c1 [Compound 194]
> 6.52

Returns the measured pKi for the input compound. Input: Cc1csc(CN(C)C(=O)c2cc(C(=O)N[C@@H](Cc3ccccc3)[C@H](O)CNCc3cncc(C(C)C)c3)cc(-c3cccnc3)c2)n1 [Compound 200]
> 6.52

meta.source: patent US20100286145A1
